target: NS2 autoprotease (NS2-NS3-FLAG, JFH-1 isolate, genotype 2a) (Hepatitis C virus genotype 2a, UniProt Q99IB8); construct: made in house; assay: in vitro NS2 autoprotease assay: recombinant NS2-NS3-FLAG proteolysis, NS3-FLAG product quantified by western blot; type: biochemical; conditions: 10-point dose response, in vitro proteolysis, 16 h; * mean ± SD of three experimental repeats; read-out: JFH1 NS2-3 EC50
Sequence (Q99IB8 908-1210): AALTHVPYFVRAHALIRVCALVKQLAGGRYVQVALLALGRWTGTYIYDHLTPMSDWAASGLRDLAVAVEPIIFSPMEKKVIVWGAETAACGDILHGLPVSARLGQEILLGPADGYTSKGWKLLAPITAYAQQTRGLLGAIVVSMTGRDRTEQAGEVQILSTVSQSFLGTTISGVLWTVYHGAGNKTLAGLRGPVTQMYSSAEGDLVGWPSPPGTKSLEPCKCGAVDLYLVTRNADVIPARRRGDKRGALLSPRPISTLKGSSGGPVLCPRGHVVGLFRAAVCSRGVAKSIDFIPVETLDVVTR
property-label: pEC50
Friendly reminder that pEC50 comes from taking -log10 of the concentration in mol/L.

Answered examples (2):
[[record]]
smiles_str = "CC1(C(=O)N2CCC3(C=Cc4ccccc43)CC2)CCCCC1"
property_label = "pEC50"
result_number = 4.37

[[record]]
smiles_str = "O=C(C1CCCCC1)N1CCC2(C=Cc3ccccc32)CC1"
property_label = "pEC50"
result_number = 4.16


In the following, a different compound is considered.
// recorded pEC50 for "CC1(C(=O)N2CCC3(CC2)c2ccccc2[C@@H](N)[C@@H]3O)CCCCC1" : 4.35
